Values were extracted from the supplement of paper PMC10567573.

Kindly state protein stability index for each of the entries shown.
B1: TRIM55 (parent)
chain: YKSFSKEQQTMDNLEKQLICPICL

- Variants of: B1
- Assay comment: protein stability index of a GFP-peptide fusion (GPS, HEK-293T) (PSI 1-6); higher = more stable;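 note: lentivirally expressed fusions sorted by FACS into six bins by GFP to DsRed ratio, PSI derived from sequencing read proportions per bin multiplied by bin number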
- Run conditions: c terminus: a fixed tail appended
API doc: respond with a numeric literal and nothing else, no unit.

Input: Which protein stability index is reported for this variant? `K2Y`
Output: 1.95

Input: Now the variant `Q8C`
Output: 1.96

Input: Now the variant `Y1V`
Output: 1.97

Input: Now the variant `T10H`
Output: 2.03

Input: Now the variant `I19L`
Output: 1.96

Input: Now the variant `L24T`
Output: 1.98

Input: Now the variant `K6N`
Output: 2.04
